target: DPP-IV (Homo sapiens); construct: purchased Sigma-Aldrich MAK203; experiment: DPP-IV inhibitory activity (Inhibitor Screening Kit MAK203); format: biochemical; details: n.d. = activity not detected; mean ± SD; read-out: DPP-IV Inhibition (IC50)
Sequence (P27487 whole entry): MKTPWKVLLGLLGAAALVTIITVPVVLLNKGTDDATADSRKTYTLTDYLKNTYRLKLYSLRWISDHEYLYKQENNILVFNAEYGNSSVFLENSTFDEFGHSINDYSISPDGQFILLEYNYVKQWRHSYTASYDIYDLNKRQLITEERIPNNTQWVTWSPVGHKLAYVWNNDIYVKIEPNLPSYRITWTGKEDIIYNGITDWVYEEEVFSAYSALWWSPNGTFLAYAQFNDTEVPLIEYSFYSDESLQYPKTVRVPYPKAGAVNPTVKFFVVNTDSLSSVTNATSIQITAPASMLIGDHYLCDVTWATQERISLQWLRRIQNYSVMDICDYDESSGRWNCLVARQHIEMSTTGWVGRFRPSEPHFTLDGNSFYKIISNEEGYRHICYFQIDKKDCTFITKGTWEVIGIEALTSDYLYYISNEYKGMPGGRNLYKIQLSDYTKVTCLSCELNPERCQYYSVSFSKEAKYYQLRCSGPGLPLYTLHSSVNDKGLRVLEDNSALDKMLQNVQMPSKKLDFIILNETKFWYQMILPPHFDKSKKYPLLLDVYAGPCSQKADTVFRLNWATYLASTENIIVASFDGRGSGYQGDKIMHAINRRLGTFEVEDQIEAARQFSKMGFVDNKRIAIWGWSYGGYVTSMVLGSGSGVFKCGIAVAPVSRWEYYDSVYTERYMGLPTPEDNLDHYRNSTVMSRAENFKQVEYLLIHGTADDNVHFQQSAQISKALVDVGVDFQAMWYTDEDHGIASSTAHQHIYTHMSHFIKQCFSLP
pIC50: −log10 of the molar value. Ends that are not written are not given here.
value kind: pIC50

[[record]]
substance = "MFTGPY [MFTGPY]"
measurement = 3.67


###

target: DPP-IV (Homo sapiens); construct: purchased Sigma-Aldrich MAK203; assay: DPP-IV inhibitory activity (Inhibitor Screening Kit MAK203); format: biochemical; details: n.d. = activity not detected; mean ± SD; read-out: DPP-IV Inhibition (IC50)
Peptide text beside a SMILES is read from it.
value kind: IC50 (µM)

[[record]]
compound = "N[C@@H](Cc1ccc(O)cc1)C(=O)N1CCC[C@H]1C(=O)N[C@@H](CO)C(=O)N[C@@H](Cc1ccc(O)cc1)C(=O)O [YPSY] (H-YPSY-OH; N-terminus and C-terminus assumed)"
value_kind = "IC50"
measurement = 32.6


###

Target: ACE from rabbit lung (Oryctolagus cuniculus, UniProt P12822)
Construct: ACE from rabbit lung; purchased Sigma-Aldrich; host or cells: rabbit lung tissue
Sequence (P12822 34-1310): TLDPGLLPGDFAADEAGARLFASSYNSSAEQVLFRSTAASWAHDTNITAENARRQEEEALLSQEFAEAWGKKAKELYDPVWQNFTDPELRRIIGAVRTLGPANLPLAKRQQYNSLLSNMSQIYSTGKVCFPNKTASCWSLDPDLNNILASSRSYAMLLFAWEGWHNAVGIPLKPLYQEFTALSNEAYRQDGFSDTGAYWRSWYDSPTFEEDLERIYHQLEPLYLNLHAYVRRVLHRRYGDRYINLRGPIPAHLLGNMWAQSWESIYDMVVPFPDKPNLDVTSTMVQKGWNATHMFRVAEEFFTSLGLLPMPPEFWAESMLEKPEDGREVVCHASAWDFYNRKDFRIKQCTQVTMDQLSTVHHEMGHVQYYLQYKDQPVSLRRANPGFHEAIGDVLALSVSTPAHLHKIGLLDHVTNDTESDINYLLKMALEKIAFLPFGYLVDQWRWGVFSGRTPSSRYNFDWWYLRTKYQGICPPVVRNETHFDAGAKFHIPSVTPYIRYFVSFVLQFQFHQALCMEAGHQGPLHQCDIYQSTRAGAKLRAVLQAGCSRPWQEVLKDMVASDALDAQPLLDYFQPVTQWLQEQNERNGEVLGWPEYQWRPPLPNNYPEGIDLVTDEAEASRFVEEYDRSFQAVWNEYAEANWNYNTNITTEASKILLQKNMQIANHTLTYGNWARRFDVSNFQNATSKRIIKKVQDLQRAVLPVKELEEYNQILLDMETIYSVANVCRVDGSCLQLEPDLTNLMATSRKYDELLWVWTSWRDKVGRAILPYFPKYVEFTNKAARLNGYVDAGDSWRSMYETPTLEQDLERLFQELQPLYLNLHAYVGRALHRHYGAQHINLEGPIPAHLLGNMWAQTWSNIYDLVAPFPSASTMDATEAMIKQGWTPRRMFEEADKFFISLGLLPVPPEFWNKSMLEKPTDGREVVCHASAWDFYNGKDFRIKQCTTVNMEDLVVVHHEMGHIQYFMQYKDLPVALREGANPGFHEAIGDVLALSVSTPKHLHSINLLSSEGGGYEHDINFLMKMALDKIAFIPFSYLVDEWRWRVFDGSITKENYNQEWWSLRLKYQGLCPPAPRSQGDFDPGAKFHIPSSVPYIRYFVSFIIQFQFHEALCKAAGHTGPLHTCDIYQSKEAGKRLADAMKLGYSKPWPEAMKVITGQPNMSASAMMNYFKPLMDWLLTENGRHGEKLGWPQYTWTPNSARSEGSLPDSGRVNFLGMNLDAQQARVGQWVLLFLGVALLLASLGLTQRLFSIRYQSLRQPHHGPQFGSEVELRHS
Experiment: ACE inhibitory activity (HHL substrate)
Type: biochemical
Settings: n.d. = activity not detected; mean ± SD; read-out: ACE Inhibition (IC50)
Ends that are not written are not given here.
Listing: IC50 of selected substances
value kind: IC50 (µM)

[[record]]
substance = "SQLPGW [SQLPGW]"
experimental_system = "ACE from rabbit lung (Oryctolagus cuniculus, UniProt P12822)"
value_kind = "IC50"
measurement = 50.5

[[record]]
substance = "DGLGYY [DGLGYY]"
experimental_system = "ACE from rabbit lung (Oryctolagus cuniculus, UniProt P12822)"
value_kind = "IC50"
measurement = 82.6


Hello, the source for this data is paper PMC9686657, in case you need it.
